- Tested on: KM12 colon
- assayMethodText: NCI tumour cell line growth inhibition, 48 h
Catalogue of GI50 values

The following compounds have reported results that may help.
[[record]]
compound = "COc1cc(NS(C)(=O)=O)ccc1Nc1c2ccc(Cl)cc2nc2c(OC)cccc12"
targetentity = "KM12 colon"
reading = "268 nM"

[[record]]
compound = "COc1cc(-c2nc(Nc3nc4ccccc4[nH]3)nc(N)c2C#N)cc(OC)c1OC"
targetentity = "KM12 colon"
reading = "714 nM"

[[record]]
compound = "O=c1cc(-c2cccc(C(F)(F)F)c2)[nH]c2cc3c(cc12)OCO3"
targetentity = "KM12 colon"
reading = "486 nM"


Send back KM12 colon GI50 of `CC[C@H](C)[C@H]1NC(=O)[C@@H](N[C@](C)(O)[C@@H](N)CC(C)C)[C@@H](C)OC(=O)[C@H](Cc2ccc(OC)cc2)N(C)C(=O)[C@@H]2CCCN2C(=O)[C@H](CC(C)C)NC(=O)[C@@H](C)C(=O)[C@H](C(C)C)OC(=O)C[C@@H]1O` only.
< 10.8 nM

Send back KM12 colon GI50 of O=C1CC(c2ccc(N3CCOCC3)cc2)(c2ccsc2)NC(=O)C1Sc1ccccc1Cl (stereo not drawn) only.
43700 nM

Send back KM12 colon GI50 of `Cn1cc(-c2nc(-c3c[nH]c4ncccc34)cs2)c2cc(F)ccc21` only.
830 nM

Send back KM12 colon GI50 of CCN(CC)CCCC(C)Nc1cnc(C(=O)Nc2ccc(Cl)c3cccnc23)cn1 (stereo not drawn) only.
3790 nM

Send back KM12 colon GI50 of `C[n+]1c(/C=C\c2ccc(Cl)cc2)ccc2ccccc21` only.
3600 nM

Send back KM12 colon GI50 of `CCC[CH2][Sn]1([CH2]CCC)[O]C(=O)c2cc(I)cc(I)c2[O]1` only.
1610 nM

Send back KM12 colon GI50 of CC(C)=CCC[C@H](C)[C@@H]1CC[C@]2(C)C3CC[C@]4(OC4(C)C)C(CCCO)[C@]3(C)CC[C@@]12C (stereo partly drawn) only.
22500 nM

Send back KM12 colon GI50 of `N#C/C(=C\c1ccc(-c2ccc(Cl)cc2)o1)C(=O)Nc1ncc(Cc2ccc(Cl)cc2)s1` only.
1830 nM

Send back KM12 colon GI50 of `COc1cc(C(=O)c2ccc3c(c2)OCO3)cc(OC)c1OC` only.
656 nM

Send back KM12 colon GI50 of `C[C@@H]1CN(C(=O)c2ccc(NC(=O)c3cc(O[C@H](C)c4c(Cl)ccc(F)c4Cl)c(N)nn3)cc2)C[C@H](C)N1` only.
55.8 nM

----------
- Tested on: K-562 leukemia
- assayMethodText: NCI tumour cell line growth inhibition, 48 h; in the data active = GI50 below about 0.43 µM; inactive = the rest
Reply using exactly one outcome from class 1 = active, class 0 = inactive

Example results:
[[record]]
compound = "COc1cc2nc(-c3cnc(N(C)C)nc3)nc(NC3CCN(Cc4ccccc4)CC3)c2cc1OC"
targetentity = "K-562 leukemia"
group = "class 1"

[[record]]
compound = "CC[C@H](C)[C@H]1NC(=O)[C@@H](N[C@](C)(O)[C@@H](N)CC(C)C)[C@@H](C)OC(=O)[C@H](Cc2ccc(OC)cc2)N(C)C(=O)[C@@H]2CCCN2C(=O)[C@H](CC(C)C)NC(=O)[C@@H](C)C(=O)[C@H](C(C)C)OC(=O)C[C@@H]1O"
targetentity = "K-562 leukemia"
group = "class 1"


Kindly provide the recorded test outcome for the following compound: `CC1=C[C@H]2c3c(c(O)c(O)c4oc5c(C)cccc5c(=O)c34)[C@H](c3cc(O)c(O)c4oc5c(C)cccc5c(=O)c34)[C@H]2C(C)(C)C1`
class 0

Kindly provide the recorded test outcome for the following compound: `CCC(C)(C)C(=O)O[C@H]1C[C@@H](C)C=C2C=C[C@H](C)[C@H](CC[C@@H]3C[C@@H](O)CC(=O)O3)[C@H]21`
class 0

Kindly provide the recorded test outcome for the following compound: `C[n+]1c(/C=C\c2ccc(Cl)cc2)ccc2ccccc21`
class 0

Kindly provide the recorded test outcome for the following compound: `Cn1cc(C2=C(c3cccc4ccccc34)C(=O)NC2=O)c2ccccc21`
class 0

Kindly provide the recorded test outcome for the following compound: `COc1cc2c3c(n(CCCCOC(=O)C(F)(F)F)c(=O)c2cc1OC)-c1cc2c(cc1C3=O)OCO2`
class 0

Kindly provide the recorded test outcome for the following compound: `Cn1nccc1Nc1nccc(-c2cc3c(s2)C(C)(C)N(CCN2CCOCC2)C3=O)n1`
class 0

Kindly provide the recorded test outcome for the following compound: `CCCN(CCC)C(=O)C1=Cc2ccc(-c3ccc(C(=O)N4CCCC4)cc3)cc2N=C(N)C1`
class 0

Kindly provide the recorded test outcome for the following compound: `CCOc1c(Br)cc(C2C(C(=O)OC)=CN(C)C=C2C(=O)OC)cc1OC`
class 0

Kindly provide the recorded test outcome for the following compound: `N#C/C(=C\c1ccc(-c2ccc(Cl)cc2)o1)C(=O)Nc1ncc(Cc2ccc(Cl)cc2)s1`
class 0

Kindly provide the recorded test outcome for the following compound: `c1ccc(Cn2cc3c(c2-c2ccccc2)CCc2cnoc2-3)cc1`
class 0

Kindly provide the recorded test outcome for the following compound: `CC(=O)[CH-]C(=O)c1ccccc1.CC(=O)[CH-]C(=O)c1ccccc1.CC[O-].CC[O-].[Zr+4]`
class 0

Kindly provide the recorded test outcome for the following compound: `O=C1NN(c2ccc(C(=O)O)cc2)C(=O)/C1=C\c1ccc([N+](=O)[O-])o1`
class 0

Kindly provide the recorded test outcome for the following compound: `Cn1cncc1[C@@](N)(c1ccc(Cl)cc1)c1ccc2c(c1)c(-c1cccc(Cl)c1)cc(=O)n2C`
class 0

Kindly provide the recorded test outcome for the following compound: CC(=O)N1N=C2/C(=C/c3ccccc3)CC(C)CC2C1c1ccccc1 (stereo unspecified)
class 0

----------
- Test system: K-562 leukemia
- assayMethodText: NCI tumour cell line growth inhibition, 48 h
measuredAttribute: TGI (µM)
Only the number, expressed in µM, is required.

The following compounds have reported results that may help.
[[record]]
compound = "Oc1ccc2cc(Br)ccc2c1-c1c(O)ccc2cc(Br)ccc12"
unitofmeasurement = "µM"
reading = 11.1

[[record]]
compound = "O=C1/C(=C/c2cccnc2)C(n2cccc2)c2c(Br)sc(Br)c21 (stereo unspecified)"
unitofmeasurement = "µM"
reading = 7.39

[[record]]
compound = "CCC[CH2][Sn]1([CH2]CCC)[O]C(=O)c2cc(I)cc(I)c2[O]1"
unitofmeasurement = "µM"
reading = 1.25


Consider the compound `N#Cc1c(-c2ccc(Cl)cc2)cc(-c2ccc(Nc3ccnc4cc(C(F)(F)F)ccc34)cc2)[nH]c1=O` and give its recorded TGI.
15.6

Consider the compound `CC(C)/C(Cl)=N\OC(=O)Nc1cccc(F)c1` and give its recorded TGI.
4.8

----------
Catalogue of GI50 values
- Tested on: OVCAR-5 ovarian
- assayMethodText: NCI tumour cell line growth inhibition, 48 h

The following compounds have reported results that may help.
[[record]]
compound = "COC(=O)NC1C(C)OC(OC2C/C=C(/C)C3C=CC4C(OC5CC(OC6CC(O)C(OC7CC(O)C(OC)C(C)O7)C(C)O6)C(O)C(C)O5)C(C)CC(C)C4C3(C)/C(O)=C3\\C(=O)OC4(CC(C)C(CO)=CC4/C=C\\2C)C3=O)CC1(C)[N+](=O)[O-] (stereo not given)"
reading = "13.4 µM"

[[record]]
compound = "CCC(C)(C)C(=O)O[C@H]1C[C@@H](C)C=C2C=C[C@H](C)[C@H](CC[C@@H]3C[C@@H](O)CC(=O)O3)[C@H]21"
reading = "9.19 µM"

[[record]]
compound = "COc1ccccc1OCC(=O)Nc1sc2c(c1C(N)=O)CCC2"
reading = "> 100 µM"

[[record]]
compound = "CC1=C[C@H]2c3c(c(O)c(O)c4oc5c(C)cccc5c(=O)c34)[C@H](c3cc(O)c(O)c4oc5c(C)cccc5c(=O)c34)[C@H]2C(C)(C)C1"
reading = "2.65 µM"

[[record]]
compound = "CCCN(CCC)C(=O)C1=Cc2ccc(-c3ccc(C(=O)N4CCCC4)cc3)cc2N=C(N)C1"
reading = "20.1 µM"


Consider the compound `N#C/C(=C\c1ccc(-c2ccc(Cl)cc2)o1)C(=O)Nc1ncc(Cc2ccc(Cl)cc2)s1` and give its recorded GI50.
3.73 µM

Consider the compound `CCOc1cccc(/C=N/NC(=O)c2ccc(Nc3ccnc(C(F)(F)F)c3)cc2)c1O` and give its recorded GI50.
7.18 µM

Consider the compound `Cn1cncc1[C@@](N)(c1ccc(Cl)cc1)c1ccc2c(c1)c(-c1cccc(Cl)c1)cc(=O)n2C` and give its recorded GI50.
5.59 µM

Consider the compound `Cc1cc(N2CCCCC2)nc(N(CCCNc2ccnc3cc(Cl)ccc23)Cc2ccco2)n1` and give its recorded GI50.
3 µM

Consider the compound `COc1ccc2nc(-c3cc(-c4cc(OC)c(OC)c(OC)c4)n[nH]3)[nH]c2c1` and give its recorded GI50.
3.03 µM

Just for reference, PubChem BioAssay (NCI) is where these values come from.
